Give EC50 for every item shown.
# assay target: Mm_Fpr2 (Mus musculus)
# Construct: expressed in transfected cells
# Sequence (O88536 whole entry): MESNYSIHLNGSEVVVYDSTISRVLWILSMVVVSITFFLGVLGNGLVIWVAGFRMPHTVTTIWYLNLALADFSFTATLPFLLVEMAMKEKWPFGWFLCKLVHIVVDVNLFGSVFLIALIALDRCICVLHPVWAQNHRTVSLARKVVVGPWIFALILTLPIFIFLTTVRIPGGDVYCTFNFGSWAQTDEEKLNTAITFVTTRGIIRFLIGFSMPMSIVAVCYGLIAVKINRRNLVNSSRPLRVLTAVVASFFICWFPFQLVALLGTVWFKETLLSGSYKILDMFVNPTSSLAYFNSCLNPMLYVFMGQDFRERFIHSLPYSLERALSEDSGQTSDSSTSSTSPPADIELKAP
# experiment description: BRET receptor-RLuc8 interaction with Venus-mGsi
# Format: cell-based
Where a SMILES comes first, the peptide text is derived from it. The star is where a group is joined. Palmitoyl = CCCCCCCCCCCCCCCC(=O)*; For = O=C*
Number in µM, nothing else.

### Prompt Lab note: need EC50 with Mm_Fpr2 (Mus musculus) for entry CCCCCCCCCCCCCCCC(=O)N[C@@H](CCCCN)C(=O)N[C@H](C(=O)N[C@@H](Cc1c[nH]cn1)C(=O)N[C@@H](CCCCN)C(=O)N[C@@H](CCCCN)C(=O)NCC(=O)N[C@@H](CCSC)C(=O)N[C@H](C(=O)N[C@@H](CCCCN)C(=O)N[C@@H](CO)C(=O)O)[C@@H](C)CC)[C@@H](C)CC [F2Pal10] (Palmitoyl-KIHKKGMIKS-OH) , please look it up.
### Response 0.166

### Prompt Please answer likewise for COc1cc(F)c([C@@H]2CNC(=O)[C@H]2NC(=O)Nc2ccccc2)c(F)c1
### Response 0.166

### Prompt Again, but for CSCC[C@H](NC=O)C(=O)N[C@@H](CC(C)C)C(=O)N[C@@H](Cc1ccccc1)C(=O)O
### Response 26.3

### Prompt # iterate: CSCC[C@H](NC=O)C(=O)N[C@@H](CC(C)C)C(=O)N[C@@H](Cc1ccccc1)C(=O)N[C@@H](CCCCN)C(=O)O [fMLFK, fMet-Leu-Phe-Lys] (For-MLFK-OH)
### Response 30.2
